assay: 4 hour solubility in buffered media (HPLC quantitation); format: physicochemical; details: aqueous buffer, thermodynamic from solid, pH 6.8 phosphate buffer, 25° C.
assay_readout: solubility at 4 h
Numeric answer plus unit only.

Provide only the value of recorded solubility at 4 h for `Nc1ccccc1NC(=O)c1ccc(CNC(=O)OCc2cccnc2)cc1`
75 µg/mL

###

test: 4 hour solubility in buffered media (HPLC quantitation); assay type: physicochemical; details: simulated gastric fluid, thermodynamic from solid, pH 1.2 hydrochloric acid buffer, 25° C.
assay_readout: solubility at 4 h

Provide only the value of recorded solubility at 4 h for `Nc1ccccc1NC(=O)c1ccc(CNC(=O)OCc2cccnc2)cc1`
> 7900 µg/mL
